Attribution: PubChem BioAssay (NCI)

# Tested on: SK-MEL-2 melanoma
# protocol text: NCI tumour cell line growth inhibition, 48 h
TGI overview
Numbers only here, please. The scale is µM.

Previously resolved entries follow.
CC(=O)c1c2c(cc3c1CC1(C3)Cc3cc4c(c(C(C)=O)c3C1)CCCC4)CCCC2 | 83.2
CC(=O)OC1CC2C(C)(C)OC(=O)CC(OC(C)=O)[C@]2(C)C2CCC3(C)C(=CCC3c3ccoc3)[C@]12C (stereo not given in full) | 25.1
COc1ccc(OC)c([N+](=O)[O-])c1-c1nc2sc(C)c(C)n2c1/C=N/N=C(N)N | 40.5

Tell us which TGI value is on record for `O=C1O/C(=C(/Cl)c2c3ccccc3cc3ccccc23)c2ccccc21`
51.2

Identify TGI associated with the compound Cc1ccc(S(=O)(=O)NNC(C[N+](=O)[O-])c2ccccc2)cc1 (stereo not given)
75

Determine from records and report TGI for `CC[C@H]1C=CCC[C@@]2(C[C@@H]3CC[C@H]4[C@@H](C(=O)OCCCCCCCCCCCCCCCC(=O)N(CCCNC(C)=O)C[C@H](CCNC(C)=O)OC(C)=O)[C@@]5(CCC[C@@H](C)O5)NC(=[N+]34)N2)O1`
3.31

---

# System: HS 578T breast
# protocol text: NCI tumour cell line growth inhibition, 48 h
# TGI per record follows
Write the value in µM as a bare number.

Sample records with TGI:
C=C1C(=O)O[C@H]2[C@H]1CC/C(COC(=O)C(=O)c1c[nH]c3ccc(Cl)cc13)=C\CC[C@@]1(C)O[C@@H]21 | 29.4
N#CSCC1CC(O)(c2ccccc2)CC(c2ccc(Cl)cc2)O1 (stereo not given) | 13.2

Under HS 578T breast, report TGI for `COC(=O)/C=C/c1ccc2c(c1)[C@H](C(=O)OC)[C@@H](c1ccc(O)cc1)O2`
96.4

Report TGI under test system HS 578T breast for `COc1ccccc1Nc1nc2ccccc2c2occc12` .
49

Report TGI under test system HS 578T breast for `C=C(CN(C)Cc1ccccc1)c1ccc(C(=O)Nc2ccccc2N)cc1` .
33.6

---

# Tested on: K-562 leukemia
# protocol text: NCI tumour cell line growth inhibition, 48 h
observation type: TGI

COC(=O)/C(C#N)=C(/NCc1ccccc1)Nc1ccccc1 | > 100 µM
C=C(C[C@@H](O)[C@H](C)NC(=O)OCc1ccccc1)C(=O)OC(C)(C)C | > 100 µM
N#CCN1CCN(CC#N)CCN(CC#N)CCN(CC#N)CC1 | > 100 µM
CC(=O)c1sc2n(C)c(=O)c3ccccc3[n+]2c1C | > 100 µM

Give the value of TGI reported for the following: CC(C)N(C(=O)C12C3(C(=O)C(C)(C)C)C4C5(C#N)C3C1(C(=O)C(C)(C)C)C5C42C(=O)C(C)(C)C)C(C)C (centres undefined)
> 100 µM

Report TGI for O=C(NN1C(=O)C(Cl)C1c1cccc(Cl)c1)c1ccccc1O (centres undefined)
> 100 µM

Return value of TGI for input COc1ccc(C2SCC(=O)N2NC(=O)C(O)c2ccccc2)cc1 (centres undefined) , no commentary.
> 100 µM

---

# System: UACC-257 melanoma
# protocol text: NCI tumour cell line growth inhibition, 48 h
observation type: TGI

Known TGI results, listed for orientation:
O=[N+]([O-])c1cc2ccc1OCc1cccc(n1)COc1ccc(cc1[N+](=O)[O-])C=NCCCCCCCCN=C2 | > 100 µM
Cc1nnc2n1N=C(c1ccc(-c3ccc([N+](=O)[O-])cc3)o1)CS2 | > 100 µM

Provide one value: measured TGI of `O=S1(=O)c2ccccc2-c2nccc3ccnc1c23`
> 100 µM

Give recorded TGI. `O=C1[C@@H]2C(c3ccncc3)=NO[C@@H]2C(=O)N1c1ccc(Cc2ccc(N3C(=O)[C@H]4C(c5ccncc5)=NO[C@H]4C3=O)cc2)cc1`
> 100 µM

Report TGI, nothing else, for this compound: `O=C(Nc1nc(-c2ccccc2)cs1)c1cc(O)c(O)c(O)c1`
52.1 µM
